# Tested on: MDA-MB-435
// classify into 1.0 (active), 0.0 (inactive)

Worked examples, 5 molecules total:
MOLECULE | ASSAY_SYSTEM | LABEL
O=C(NNc1nc2c(F)cccc2n2cccc12)c1cnccn1 | MDA-MB-435 | 0.0
C#Cc1cnc(=O)n(C2CC(O)C(CO)O2)c1 (stereo unspecified) | MDA-MB-435 | 0.0
N#CC(=C1SCS1)[N+](=O)[O-] | MDA-MB-435 | 0.0
COc1ccc(/C=C/C=C(/C#N)C(N)=S)cc1 | MDA-MB-435 | 0.0
NC(N)=N/N=C(/c1ccccc1)c1ccc(F)cc1 | MDA-MB-435 | 1.0

input: Could you check what this test reported for `COc1cc(-n2cc(-c3ccc(Cl)c(Cl)c3)nc2SCc2ccccc2)cc(OC)c1OC` ?
output: 0.0

====

# Tested on: IGROV1 ovarian
# PROTOCOL_NOTES: NCI tumour cell line growth inhibition, 48 h; in the data active means GI50 below about 0.43 µM; inactive means the rest
Choose the fitting class; nothing outside true (1) (active), false (0) (inactive) is accepted.

input: Recorded call for `CN1CCN(Cc2ccc(C(=O)Nc3cncc(C#Cc4cnc(N)c5ccccc45)c3)cc2C(F)(F)F)CC1` ?
output: false (0)

input: Outcome logged for `Cc1ccn2c3c(c(C(=O)O)c2c1)C(=O)c1ccccc1C3=O` in this assay:
output: false (0)

input: Write down the call the test reported for this molecule. Item: `CCN1CCN(c2nc(NCCCNc3ccnc4cc(Cl)ccc34)c3ccccc3n2)CC1`
output: false (0)

input: # fetch the recorded call for `COC1(C(=O)N2Cc3nc(Cl)nc(N[C@H](C)c4cc(N)cc(C(F)(F)F)c4)c3C2)CCOCC1` here
output: false (0)

input: Assay outcome for `CN=C(N)N/N=C(\c1ccccc1)c1ccc(Br)cc1` : what was it?
output: false (0)

====

# Test system: SF-539 CNS
# PROTOCOL_NOTES: NCI tumour cell line growth inhibition, 48 h
PROPERTY_NAME: TGI

MOLECULE | ASSAY_SYSTEM | REPORTED_MEASUREMENT
CC(C)CC(N)C(=O)OCN1C(=O)C2C3C=CC(C2C1=O)C1C2C(=O)N(COC(=O)C(N)CC(C)C)C(=O)C2C31 (stereo not given) | SF-539 CNS | > 100 µM

For Nc1nc(Cl)cc(NCC2(CO)CC(CCc3ccccc3)C2)n1 (stereo not given) the molecule record lists TGI as > 100 µM

The recorded TGI for COC1O[C@H]2CCN(C(=O)OCc3ccccc3)[C@H]2[C@H]1OCc1ccccc1 (stereo not given in full) is > 100 µM

Form: molecule = `CN(C)/C(=N/C(=S)Nc1ccccc1)SCc1ccccc1` ; TGI = > 100 µM

====

The following compounds are shown together with reported TGI values.
# System: HOP-92 NSCLC
# PROTOCOL_NOTES: NCI tumour cell line growth inhibition, 48 h
Reply numerically in µM, unit not repeated.

Below, each entry is followed by its recorded TGI result.
COMPOUND | ASSAY_SYSTEM | PROPERTY_NAME | REPORTED_MEASUREMENT
Cc1ccc2c(C(C[N+](=O)[O-])c3cccs3)c(-c3ccccc3)[nH]c2c1 (centres undefined) | HOP-92 NSCLC | TGI | 9.24
CC(=O)[CH-]C(=O)c1ccccc1.CC(=O)[CH-]C(=O)c1ccccc1.CCCCCCCCCCCCCCCCCC(=O)[O-].CCCCCCCCCCCCCCCCCC(=O)[O-].[Ti+4] | HOP-92 NSCLC | TGI | 33.9
CC(CO)(CO)N=Cc1cc(I)cc(I)c1O | HOP-92 NSCLC | TGI | 32.9

# input for lookup
TGI in this record for `N#Cc1c(NC(=O)c2cccc(C(F)(F)F)c2)sc2c1CCC(=O)C2` : 3.06
